Catalogue of koff values
# system: T1, cynomolgus CD8 (captured on the Octet biosensor) (cynomolgus)
# T1 construct: Construct not described; also called cyno CD8; cyno CD8a
# T1 sequence (P30433 other isoform, or with tags, fused parts or gaps): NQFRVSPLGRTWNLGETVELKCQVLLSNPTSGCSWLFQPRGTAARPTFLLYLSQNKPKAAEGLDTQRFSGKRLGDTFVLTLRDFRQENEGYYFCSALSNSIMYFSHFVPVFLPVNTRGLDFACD
# assay-summary: Octet (BLI); cynomolgus CD8 captured, dipped into multiple concentrations of the one-arm mAb
Please respond with the number in s⁻¹ and leave the unit unwritten.

Study these solved cases before continuing.
{"binder": "XENP26243 (antibody, V domains shown, also called OKT8_H2.166_L1.103 one-arm mAb) VH: QVQLVQSGAEVKKPGASVKVSCKASGFNIKDTYIHWVRQAPGKGLEWMGRIDPDNDETLYASKFQGRVTMTADTSINTAYMELSRLRSDDTAVYYCGRGWGYYVFDHWGQGTTVTVSS VL: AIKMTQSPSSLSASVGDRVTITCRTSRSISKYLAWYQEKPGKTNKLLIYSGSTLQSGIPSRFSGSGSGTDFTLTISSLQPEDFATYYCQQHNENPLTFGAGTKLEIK", "koff / s⁻¹": 0.0108}
{"binder": "XENP26234 (antibody, V domains shown, also called OKT8_H2.157_L1.103 one-arm mAb) VH: QVQLVQSGAEVKKPGASVKVSCKASGFNIKDTYIHWVRQAPGKGLEWMGRIDPDNGETLYASKFQGRVTMTADTSINTAYMELSRLRSDDTAVYYCGRGYGKYVFDHWGQGTTVTVSS VL: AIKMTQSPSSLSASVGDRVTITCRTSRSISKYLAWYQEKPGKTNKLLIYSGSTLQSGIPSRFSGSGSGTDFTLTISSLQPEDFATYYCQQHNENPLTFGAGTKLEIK", "koff / s⁻¹": 0.00448}
{"binder": "XENP26231 (antibody, V domains shown, also called OKT8_H2.154_L1.103 one-arm mAb) VH: QVQLVQSGAEVKKPGASVKVSCKASGFNIKDTYIHWVRQAPGKGLEWMGRIDPDNGETLYASKFQGRVTITADTSINTAYMELSRLRSDDTAVYYCGRGYGKYVFDHWGQGTTVTVSS VL: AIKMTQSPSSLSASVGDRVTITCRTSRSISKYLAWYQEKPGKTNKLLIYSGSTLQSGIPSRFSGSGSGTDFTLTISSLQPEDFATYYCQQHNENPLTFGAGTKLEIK", "koff / s⁻¹": 0.00887}

Task: What value of koff has been reported for the following binder? XENP26242 (antibody, V domains shown, also called OKT8_H2.165_L1.103 one-arm mAb) VH: QVQLVQSGAEVKKPGASVKVSCKASGFNIKDTYIHWVRQAPGKGLEWMGRIDPDNDETLYASKFQGRVTMTADTSINTAYMELSRLRSDDTAVYYCGRGYGYYYFDHWGQGTTVTVSS VL: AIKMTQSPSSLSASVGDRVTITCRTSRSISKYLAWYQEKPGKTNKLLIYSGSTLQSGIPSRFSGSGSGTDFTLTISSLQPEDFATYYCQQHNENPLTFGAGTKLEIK
Output: 0.00968

The reported numbers originate from patent US12448423.
